All figures here come from paper PMC12221116.

Measured MIC by item
# Test system: Mtb TIAS
# Assay comment: microbe, parasite or virus in culture
# Assay type: cell-based, Mycobacterium tuberculosis
# Run parameters: Mycobacterium tuberculosis, read-out: MIC Mtb TIAS
Attribute measured: MIC (µg/mL)

compound="COc1ccc(Cn2c(C)nc3cc(Cl)ccc3c2=O)cc1 [Compound 17]" scale_unit=µg/mL measurement_qualifier== numeric_readout=12.5
compound="Cc1nc2cc(Cl)ccc2c(=O)n1Cc1cccc(Cl)c1 [Compound 21]" scale_unit=µg/mL measurement_qualifier== numeric_readout=12.5
compound="NNC(=O)c1ccncc1 [INH, isoniazid, reference compound]" scale_unit=µg/mL measurement_qualifier=> numeric_readout=100
compound="Cc1nc2cc(Cl)ccc2c(=O)n1/N=C/c1ccc(O)c([N+](=O)[O-])c1 [Compound 25]" scale_unit=µg/mL measurement_qualifier== numeric_readout=25
compound="Cc1nc2cc(Cl)ccc2c(=O)n1Cc1ccc(Cl)c(Cl)c1 [Compound 24]" scale_unit=µg/mL measurement_qualifier== numeric_readout=6.25
compound="Cc1nc2cc(Cl)ccc2c(=O)n1Cc1ccc(F)cc1 [Compound 19]" scale_unit=µg/mL measurement_qualifier== numeric_readout=12.5
